Reference for the values: paper PMC9314948

assay_method_text: Study B: pharmacokinetics of SC bremelanotide
Assay type: in vivo, human
condition_info: human, in vivo, sc, t max (D1), Study B; twice-daily (2.5 mg/2.0 mg) SC; dose 1; mean ± SD, n = 19-20
measurement_kind: Tmax (min)

[
  {
    "compound": "CCCC[C@H](NC(C)=O)C(=O)N[C@H]1CC(=O)NCCCC[C@@H](C(=O)O)NC(=O)[C@H](Cc2c[nH]c3ccccc23)NC(=O)[C@H](CCCNC(=N)N)NC(=O)[C@@H](Cc2ccccc2)NC(=O)[C@H](Cc2c[nH]cn2)NC1=O [bremelanotide]",
    "experimental_value": 54
  }
]

* * *

assay_method_text: Study B: pharmacokinetics of SC bremelanotide
Format: in vivo, human
condition_info: human, in vivo, sc, Cmax, Study B; once-daily (2.5 mg/0 mg) SC; plasma; mean ± SD, n = 17-22

[
  {
    "compound": "CCCC[C@H](NC(C)=O)C(=O)N[C@H]1CC(=O)NCCCC[C@@H](C(=O)O)NC(=O)[C@H](Cc2c[nH]c3ccccc23)NC(=O)[C@H](CCCNC(=N)N)NC(=O)[C@@H](Cc2ccccc2)NC(=O)[C@H](Cc2c[nH]cn2)NC1=O [bremelanotide]",
    "measurement_units": "ng/mL",
    "Cmax": 75.1
  }
]

* * *

assay_method_text: Study B: pharmacokinetics of SC bremelanotide
Assay type: in vivo, human
condition_info: human, in vivo, sc, t max, Study B; twice-daily (2.5 mg/2.0 mg) SC; mean ± SD, n = 19-20

[
  {
    "compound": "CCCC[C@H](NC(C)=O)C(=O)N[C@H]1CC(=O)NCCCC[C@@H](C(=O)O)NC(=O)[C@H](Cc2c[nH]c3ccccc23)NC(=O)[C@H](CCCNC(=N)N)NC(=O)[C@@H](Cc2ccccc2)NC(=O)[C@H](Cc2c[nH]cn2)NC1=O [bremelanotide]",
    "Tmax": "3.3 h"
  }
]
